test system: E. coli; assay: MIC, agar-dilution technique, standard in vitro test; type: cell-based; conditions: Escherichia coli; strain code A8341098; Isosensitest agar; inoculum 10^4 CFU./spot; read-out: minimum inhibitory concentration (MIC)
recorded-endpoint: MIC (µg/mL)
// units = µg/mL; emit number, no label

A selection of reference data follows.
{"molecule-smiles": "C[n+]1ccc(NCC2=C(C(=O)[O-])N3C(=O)[C@@H](NC(=O)/C(=N\\OC(C)(C)C(=O)O)c4csc(N)n4)[C@H]3SC2)cc1", "recorded-endpoint": "MIC", "recorded-result": 0.13}
{"molecule-smiles": "C[n+]1ccc(NCC2=C(C(=O)[O-])N3C(=O)[C@@H](NC(=O)/C(=N\\OC4(C(=O)O)CCC4)c4csc(N)n4)[C@H]3SC2)cc1", "recorded-endpoint": "MIC", "recorded-result": 0.25}
{"molecule-smiles": "C=CCO/N=C(\\C(=O)N[C@@H]1C(=O)N2C(C(=O)[O-])=C(CNc3cc[n+](C)cc3)CS[C@H]12)c1csc(N)n1", "recorded-endpoint": "MIC", "recorded-result": 0.25}
{"molecule-smiles": "C[n+]1ccc(NCC2=C(C(=O)[O-])N3C(=O)[C@@H](NC(=O)/C(=N\\OCC#N)c4csc(N)n4)[C@H]3SC2)cc1", "recorded-endpoint": "MIC", "recorded-result": 0.032}
{"molecule-smiles": "C[n+]1ccc(NCC2=C(C(=O)[O-])N3C(=O)[C@@H](NC(=O)[C@H](NC(=O)c4n[nH]c(=O)nc4O)c4ccc(O)cc4)[C@H]3SC2)cc1", "recorded-endpoint": "MIC", "recorded-result": 128}
{"molecule-smiles": "CO/N=C(\\C(=O)N[C@@H]1C(=O)N2C(C(=O)O)=C(CNc3cc[n+](C)cc3)CS[C@H]12)c1csc(N)n1", "recorded-endpoint": "MIC", "recorded-result": 0.032}

Task: // lookup MIC for CCN1CCN(C(=O)N[C@@H](C(=O)N[C@@H]2C(=O)N3C(C(=O)[O-])=C(CNc4cc[n+](C)cc4)CS[C@H]23)c2ccc(O)cc2)C(=O)C1=O
Result: 2

The reported numbers originate from patent US4678781A.
